Tested on: UACC-62 melanoma
Experiment Description: NCI tumour cell line growth inhibition, 48 h
Listing: TGI of selected compounds

COc1ccc(Br)c(CCCCC(=O)O)c1 = > 100 µM
CCOc1ccc(NC(=O)/C(=C/c2ccccc2)C(C)=O)cc1 = 20.1 µM
NC(=O)OCc1c(O)c2c(c(O)c1COC(N)=O)C(=O)C=CC2=O = > 100 µM
Cc1[nH]c2ncn(N)c(=N)c2c1Cc1ccccc1 = > 100 µM
CC1C2CC(CC2=O)C1(C)C (configuration not stated) = > 100 µM

Per the reported UACC-62 melanoma data, C=C1C(=O)OC2C3C(=C)[C@@H](OC(C)=O)CC3C(C)=CC(OC(=O)C(C)(O)C(C)OC(C)=O)[C@@H]12 (some centres not stated) has TGI of 25.8 µM

Per the reported UACC-62 melanoma data, O=C1c2ccccc2-c2ccc(N(Cc3ccc(Br)cc3)Cc3ccc(Br)cc3)cc21 has TGI of > 100 µM

Per the reported UACC-62 melanoma data, CC(=O)NC1C(OCc2ccccc2)OC(CO)C(O)C1OC(C)C(=O)NC(C(=O)NC(CCC(=O)Nc1ccc2c(c1)CN1C(=O)c3ccccc3C1=N2)C(N)=O)C(C)C (configuration not stated) has TGI of > 100 µM

Per the reported UACC-62 melanoma data, CC(=O)NC1C(OCc2ccccc2)OC(CO)C(O)C1OCC(=O)NC(C)C(=O)NC(CCC(=O)Nc1ccc2c(c1)CN1C(=O)c3ccccc3C1=N2)C(N)=O (configuration not stated) has TGI of > 100 µM

Per the reported UACC-62 melanoma data, CN(C)c1ccc(N=C(C#N)c2nc(N)nc(N3CCOCC3)n2)cc1 has TGI of > 100 µM

Per the reported UACC-62 melanoma data, CCOC(=O)c1cc(NC(=O)c2ccccc2)c(=O)n2c(cc3c(Cl)cccc32)c1O has TGI of > 100 µM

Per the reported UACC-62 melanoma data, COc1ccc(C(c2ccccc2)N2C(=O)CCC2C(=O)O)cc1OC (configuration not stated) has TGI of > 100 µM

Per the reported UACC-62 melanoma data, O=Cc1cc(O)ccc1Br has TGI of 50.4 µM

Per the reported UACC-62 melanoma data, COc1ccc(C(=O)Nc2ccccc2)cc1[N+](=O)[O-] has TGI of > 100 µM

Per the reported UACC-62 melanoma data, Cc1cc(N(CCC#N)CCC#N)ccc1N=Nc1ccc([N+](=O)[O-])cc1 has TGI of > 10 µM

Per the reported UACC-62 melanoma data, CC1OC(OC2C(OC3CCC4(C)C(CCC5(C)C4CC=C4C6CC(C)(C)CCC6(CO)C(O)CC45C)C3(C)C)OC(C(=O)O)C(OC3OC(COC4OC(CO)C(O)C(O)C4O)C(O)C(O)C3O)C2O)C(O)C(O)C1O (configuration not stated) has TGI of 20.6 µM

Per the reported UACC-62 melanoma data, NC(=NCc1ccccc1)N/N=C\c1ccnc2ccccc12 has TGI of 29.4 µM

Per the reported UACC-62 melanoma data, CCCN=C1S/C(=C/c2ccc(OC)c(OC)c2)C(=O)N1c1ccccc1 has TGI of > 100 µM

Per the reported UACC-62 melanoma data, OCCC#Cc1ccccc1C#Cc1ccccc1 has TGI of 24.4 µM

Per the reported UACC-62 melanoma data, Cc1ccc(C)c(NC(=O)CCC(=O)CC(=O)C(C)(C)C)c1 has TGI of > 100 µM

Per the reported UACC-62 melanoma data, O=[N+]([O-])c1ccc(N=Nc2c(O)[nH]c3ccc(Br)cc23)c([N+](=O)[O-])c1 has TGI of 16.2 µM

Per the reported UACC-62 melanoma data, CCOC(=O)C1=C(O)CSC1=Nc1ccc(N=C2SCC(O)=C2C(=O)OCC)cc1 has TGI of 44.2 µM

###

Listing: TGI of selected compounds
Test system: MOLT-4 leukemia
Experiment Description: NCI tumour cell line growth inhibition, 48 h

Worked cases, TGI given:
Nc1nccc(C#Cc2cncnc2Nc2ccc(OCc3cccc(F)c3)c(Cl)c2)n1 = 21.5 µM
Cc1cc2c(cc1-c1cc3c(cc1C)C(C(C)C)=C(O)C(=O)/C3=C\Nc1cccc3c(N)cccc13)/C(=C/Nc1cccc3c(N)cccc13)C(=O)C(O)=C2C(C)C = > 100 µM
Cc1c(/C=N\NC(=S)N(C)CCN(C)C(=S)N/N=C\c2c(C)n(C)n(-c3ccccc3)c2=O)c(=O)n(-c2ccccc2)n1C = > 100 µM

Given item CSc1nc(NC2OC(CO)C(O)C(O)C2O)c(N)c(=O)n1C (stereo not given) , the value recorded as its TGI is > 100 µM

Given item Cc1ccc(CCCC(=O)O)cc1C , the value recorded as its TGI is > 100 µM

###

Listing: TGI of selected molecules
Tested on: NCI-H23 lung
Experiment Description: NCI tumour cell line growth inhibition, 48 h

O=C(O)Cc1ccccc1 = > 2000 µM

Given item COc1ccc(C=O)c(N(C)C(=O)C(C)(C)C)c1 , the value recorded as its TGI is > 100 µM

Given item O=C(NCCS(=O)(=O)N1C(=O)C2CCCN2C(=O)[C@@H]1Cc1ccccc1)OCc1ccccc1 (some centres not stated) , the value recorded as its TGI is > 100 µM

Given item Cc1oc2nc(N(C)C)n3c(C)nnc3c2c1C , the value recorded as its TGI is > 100 µM

Given item COc1cc(-c2[nH]ncc2CCCC(=O)Nc2ccccc2[N+](=O)[O-])ccc1O , the value recorded as its TGI is > 100 µM

Given item Nc1nccc(C#Cc2cncnc2Nc2ccc(OCc3cccc(F)c3)c(Cl)c2)n1 , the value recorded as its TGI is 8.92 µM

Given item CCCCCCCCCCCCCCCc1ccc(C(=O)C[n+]2ccccc2)cc1 , the value recorded as its TGI is 1.79 µM

Given item NC(=S)NS(=O)(=O)c1ccc(F)cc1 , the value recorded as its TGI is > 100 µM

Given item CCCNc1c(Cl)cc(Cl)c2[nH]c3ccccc3c(=O)c12 , the value recorded as its TGI is > 100 µM

###

Listing: TGI of selected compounds
Tested on: SR leukemia
Experiment Description: NCI tumour cell line growth inhibition, 48 h

Worked cases, TGI given:
O=[N+]([O-])c1ccc(N=Nc2c(O)[nH]c3ccc(Br)cc23)c([N+](=O)[O-])c1 = 10.5 µM
CCCNc1c(Cl)cc(Cl)c2[nH]c3ccccc3c(=O)c12 = > 100 µM

Given item Oc1ccc(-c2nc(-c3ccc(F)cc3)c(-c3ccncc3)[nH]2)cc1 , the value recorded as its TGI is 52.8 µM

Given item O=C(CC(C(=O)c1ccsc1)c1cccs1)c1ccsc1 (configuration not stated) , the value recorded as its TGI is > 100 µM

Given item Cn1c(=O)c2c(nc3n2C(CCl)CO3)n(C)c1=O (configuration not stated) , the value recorded as its TGI is > 100 µM

Given item Nc1nc(Cl)c(N)c(NCC2(CO)CC(O)C2)n1 (configuration not stated) , the value recorded as its TGI is > 100 µM

Given item C=C1C(=O)C23C(O)C1CCC2C12CO[C@]3(O)[C@@H](O)C1C(C)(C)CCC2O (some centres not stated) , the value recorded as its TGI is > 100 µM

###

System: HT29 colon
Experiment Description: NCI tumour cell line growth inhibition, 48 h
Listing: TGI of selected molecules

NC(=NCc1ccccc1)N/N=C\c1ccnc2ccccc12 = 25.4 µM

Given item CCOC(=O)/C(=C/c1c(-c2ccccc2)[nH]c2ccccc12)C(=O)c1ccc(Cl)cc1 , the value recorded as its TGI is > 100 µM

Given item CC(=O)NC1C(OCc2ccccc2)OC(CO)C(O)C1OC(C)C(=O)NC(C(=O)NC(CCC(=O)Nc1ccc2c(c1)CN1C(=O)c3ccccc3C1=N2)C(N)=O)C(C)C (stereo unspecified) , the value recorded as its TGI is > 100 µM

Given item S=c1nc(/C=C/c2ccc(Cl)c(Cl)c2)[nH][nH]1 , the value recorded as its TGI is > 100 µM

###

System: SNB-75 CNS
Experiment Description: NCI tumour cell line growth inhibition, 48 h
Listing: TGI of selected molecules
I only need the number, in µM, no unit after it.

COc1ccc(C2=NN(c3ccc(S(N)(=O)=O)cc3)C(c3ccc(Cl)cc3)C2)c(O)c1 (stereo not given) = 45.1

Now, please, on to the next molecule.
Per the reported SNB-75 CNS data, N/C(=N\N=C=C1C(=O)Nc2ccc(F)cc21)NO has TGI of 65.9

###

Listing: TGI of selected compounds
System: K-562 leukemia
Experiment Description: NCI tumour cell line growth inhibition, 48 h
I only need the number, in µM, no unit after it.

CC1(C)CCC(CN2CCN(c3ccc(C(=O)NS(=O)(=O)c4ccc(NCC5CCOCC5)c([N+](=O)[O-])c4)c(Oc4cnc5[nH]ccc5c4)c3)CC2)=C(c2ccc(Cl)cc2)C1 = 26.9

Now, please, on to the next compound.
Given item C/C(=N\NC(=S)Nc1ccccc1)c1ccccn1 , the value recorded as its TGI is 6.93
